TARGET_OR_SYSTEM: recombinant human NF-kappaB-inducing kinase (NIK/MAP3K14) (Homo sapiens (Human))
ASSAY_SUMMARY: Inhibition of auto-phosphorylation of recombinant human NIK/MAP3K14 (AlphaScreen)
CONDITION_NOTES: NIK auto-phosphorylation, 5 μM ATP, 1 nM NIK, 2 h at 25° C.; average of values
pIC50: −log10 of the molar value.
Each record here notes measured pIC50.
TEST_READOUT: pIC50

# MOLECULE, TEST_READOUT, VAL
measured = [
    ("[2H]C([2H])([2H])N1CCC(O)(C#Cc2cccc(-c3ncc4c(C)cnc(N)c4n3)c2)C1=O (stereo in doubt) [Example 87]", "pIC50", "≥ 9.30"),
    ("Cc1nc(N)c2nc(-c3cccc(C#C[C@](C)(O)c4scnc4C)c3)ccc2n1 [Example 162]", "pIC50", "< 5.30"),
    ("C[C@@](O)(C#Cc1cccc(-c2ncc3ccnc(N)c3n2)c1)c1nccs1 [Example 32]", "pIC50", "≥ 9.30"),
]

###

TARGET_OR_SYSTEM: recombinant human NF-kappaB-inducing kinase (NIK/MAP3K14) (Homo sapiens (Human), UniProt Q99558)
Sequence (Q99558 whole entry): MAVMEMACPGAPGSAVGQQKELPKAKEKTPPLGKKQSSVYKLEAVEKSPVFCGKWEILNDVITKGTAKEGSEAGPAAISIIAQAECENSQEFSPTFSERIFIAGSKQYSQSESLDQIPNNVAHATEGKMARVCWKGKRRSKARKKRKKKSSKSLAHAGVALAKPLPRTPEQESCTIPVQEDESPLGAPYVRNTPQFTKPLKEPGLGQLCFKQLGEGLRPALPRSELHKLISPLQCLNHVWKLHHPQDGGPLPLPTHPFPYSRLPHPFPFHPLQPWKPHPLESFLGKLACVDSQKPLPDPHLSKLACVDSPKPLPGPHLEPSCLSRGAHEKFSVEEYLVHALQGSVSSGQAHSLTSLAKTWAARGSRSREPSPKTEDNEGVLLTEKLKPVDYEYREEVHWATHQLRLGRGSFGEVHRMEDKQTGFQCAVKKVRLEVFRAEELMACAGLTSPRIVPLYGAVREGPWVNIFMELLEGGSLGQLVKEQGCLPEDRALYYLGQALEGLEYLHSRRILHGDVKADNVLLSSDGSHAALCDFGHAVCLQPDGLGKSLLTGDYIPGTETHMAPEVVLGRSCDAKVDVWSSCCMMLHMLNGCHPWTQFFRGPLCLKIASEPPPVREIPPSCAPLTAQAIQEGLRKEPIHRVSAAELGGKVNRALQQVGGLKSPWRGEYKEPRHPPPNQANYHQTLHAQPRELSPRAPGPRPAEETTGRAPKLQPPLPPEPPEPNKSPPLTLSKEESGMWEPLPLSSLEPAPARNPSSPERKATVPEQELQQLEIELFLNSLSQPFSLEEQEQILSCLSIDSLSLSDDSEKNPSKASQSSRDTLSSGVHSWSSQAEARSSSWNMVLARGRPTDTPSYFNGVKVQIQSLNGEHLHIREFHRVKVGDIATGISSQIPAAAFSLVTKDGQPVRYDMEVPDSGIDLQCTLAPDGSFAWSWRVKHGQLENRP
ASSAY_SUMMARY: Inhibition of auto-phosphorylation of recombinant human NIK/MAP3K14 (AlphaScreen)
CONDITION_NOTES: NIK auto-phosphorylation, 5 μM ATP, 1 nM NIK, 2 h at 25° C.; average of values
# strict inequality: IC50 < 6 nM yields rule met, everything else yields rule not met

# CHEMICAL_STRUCTURE, ANSWER_LABEL
rows = [
    ("CCc1cnc(N)c2nc(-c3cccc(C#C[C@]4(O)CCN(C)C4=O)c3)ncc12", "rule met"),
    ("[2H]c1nc(N)c2nc(-c3cccc(C#C[C@]4(O)CCN(C)C4=O)c3)cc(CN)c2n1", "rule met"),
    ("[2H]c1nc(N)c2nc(-c3cc(C#C[C@]4(O)CCN(C)C4=O)ccc3C)ccc2n1", "rule met"),
    ("Cc1ncc(C#N)c2ccc(-c3cccc(C#C[C@]4(O)CCN(C)C4=O)c3)nc12", "rule not met"),
    ("[2H]C([2H])([2H])N1CC[C@@](O)(C#Cc2cccc(-c3ccc4nc(CF)nc(N)c4n3)c2)C1=O", "rule met"),
    ("Cc1nc(N)c2nc(-c3cccc(C#C[C@@](C)(O)c4ncccn4)c3)ccc2n1", "rule not met"),
    ("C[C@@](O)(C#Cc1cccc(-c2ncc3ncnc(N)c3n2)c1)c1nccs1", "rule met"),
    ("CN1CC[C@@](O)(C#Cc2cccc(-c3ccc4nc(F)nc(N)c4n3)c2)C1=O", "rule met"),
    ("CN1CC[C@@](O)(C#Cc2cccc(-c3ccc4ncnc(N5CC(Cl)C5)c4n3)c2)C1=O", "rule met"),
    ("CN1CC[C@@](O)(C#Cc2cccc(-c3cc(OC4CC4)c4ncnc(N)c4n3)c2)C1=O", "rule met"),
    ("CN1CC[C@@](O)(C#Cc2cccc(-c3cc(N(C)C)c4ncnc(N)c4n3)c2)C1=O", "rule met"),
    ("CN1CC[C@@](C#Cc2cccc(-c3ccc4ncnc(N)c4n3)c2)(C(F)F)C1=O", "rule not met"),
    ("CN1CC[C@](O)(C#Cc2cccc(-c3cc(Br)c4ncnc(N)c4n3)c2)C1=O", "rule not met"),
    ("Cc1csc([C@@](C)(O)C#Cc2cccc(-c3ccc4nc(C)nc(N)c4n3)c2)n1", "rule not met"),
    ("CN1CC[C@@](O)(C#Cc2ccc(OC(F)(F)F)c(-c3ncc4ccnc(N)c4n3)c2)C1=O", "rule met"),
    ("Nc1ncnc2cnc(-c3cccc(C#C[C@]4(O)CCn5ccnc54)c3)nc12", "rule met"),
    ("CN(C)Cc1cnc(N)c2nc(-c3cccc(C#C[C@]4(O)CCN(C)C4=O)c3)ncc12", "rule met"),
    ("COc1cc(-c2cccc(C#C[C@]3(O)CCN(C)C3=O)c2)cc2c(N)ncnc12", "rule met"),
    ("CN1CC[C@@](O)(C#Cc2cccc(-c3ncc4c(-c5cn[nH]c5)cnc(N)c4n3)c2)C1=O", "rule met"),
    ("Nc1nccc2cnc(-c3cccc(C#CC4(O)CCCC4)c3)nc12", "rule met"),
    ("CN1CC[C@](C#Cc2cccc(-c3ccc4ncnc(N)c4n3)c2)(C(F)F)C1=O", "rule not met"),
    ("Cc1ccc(C#C[C@@]2(O)CCN(C)C2=O)cc1-c1ccc2ncnc(N)c2n1", "rule not met"),
]

###

Recorded measurements of pIC50, one per entry
TARGET_OR_SYSTEM: recombinant human NF-kappaB-inducing kinase (NIK/MAP3K14) (Homo sapiens (Human), UniProt Q99558)
ASSAY_SUMMARY: Inhibition of auto-phosphorylation of recombinant human NIK/MAP3K14 (AlphaScreen)
CONDITION_NOTES: NIK auto-phosphorylation, 5 μM ATP, 1 nM NIK, 2 h at 25° C.; average of values
Method: Inhibition of auto-phosphorylation of recombinant human NF-kappaB-inducing kinase (NIK/MAP3K14) activity (AlphaScreen®) NIK/MAP3K14 auto-phosphorylation activity was measured using the AlphaScreen® (αscreen) format (Perkin Elmer). […] Protein A Acceptor and Glutathione-Donor beads were added before reading using an EnVision® Multilabel Plate Reader (Perkin Elmer). […] IC50's were determined by fitting a sigmoidal curve to % inhibition of control versus Log10 compound concentration.
pIC50: −log10 of the molar value.

# CHEMICAL_STRUCTURE, pIC50
records = [
    ("Nc1ncnc2cnc(-c3cccc(C#C[C@@]4(O)CCc5cccnc54)c3)nc12", "≥ 9.30"),
    ("Cc1nc(-c2cccc(C#C[C@]3(O)CCn4ccnc43)c2)nc2c(N)nccc12", "≥ 9.30"),
    ("Cc1ccc(C#C[C@]2(O)CCn3ccnc32)cc1-c1nc2c(N)ncnc2s1", "≥ 9.30"),
]

###

// values below are reported pIC50
TARGET_OR_SYSTEM: recombinant human NF-kappaB-inducing kinase (NIK/MAP3K14) (Homo sapiens (Human))
ASSAY_SUMMARY: Inhibition of auto-phosphorylation of recombinant human NIK/MAP3K14 (AlphaScreen)
CONDITION_NOTES: NIK auto-phosphorylation, 5 μM ATP, 1 nM NIK, 2 h at 25° C.; average of values
pIC50: −log10 of the molar value.

# COMPOUND, LIMIT_SIGN, pIC50
records = [
    ("CN1CC[C@@](O)(C#Cc2cccc(-c3ncc4c(Br)cnc(N)c4n3)c2)C1=O [Example 94]", "≥", 9.30),
    ("COc1ccc(C#C[C@]2(O)CCN(C)C2=O)cc1-c1ccc2nc(C)nc(N)c2n1 [Example 161]", "=", 8.15),
    ("CC(C)Nc1cc(-c2cccc(C#C[C@]3(O)CCN(C)C3=O)c2)nc2c(N)ncnc12 [Example 297]", "=", 8.72),
    ("[2H]c1nc(N)c2nc(-c3cccc(C#C[C@]4(O)CCN(C)C4=O)c3)cc(C(C)C)c2n1 [Example 283]", "=", 9.22),
    ("Cc1cc(-c2cccc(C#C[C@]3(O)CCN(C)C3=O)c2)nc2c(N)ncnc12 [Example 28]", "≥", 9.30),
    ("CN1CC[C@@](O)(C#Cc2cccc(-c3ncc4c(Cl)cnc(N)c4n3)c2)C1=O [Example 103]", "≥", 9.30),
]

###

# IC50 per entry
TARGET_OR_SYSTEM: recombinant human NF-kappaB-inducing kinase (NIK/MAP3K14) (Homo sapiens (Human))
ASSAY_SUMMARY: Inhibition of auto-phosphorylation of recombinant human NIK/MAP3K14 (AlphaScreen)
CONDITION_NOTES: NIK auto-phosphorylation, 5 μM ATP, 1 nM NIK, 2 h at 25° C.; average of values

# CHEMICAL_STRUCTURE, LIMIT_SIGN, IC50, nM
records = [
    ("CC1(C)CC[C@@](O)(C#Cc2cccc(-c3ccc4ncnc(N)c4n3)c2)C1=O", "≤", 0.5),
    ("Cc1ccc(C#C[C@]2(O)CCc3cccnc32)cc1-c1nc2c(N)ncnc2s1", "≤", 0.5),
    ("CN1CC[C@@](O)(C#Cc2cccc(-c3ncc4c(CN5CCCCC5)cnc(N)c4n3)c2)C1=O", "=", 3.6),
    ("Cc1nc(N)c2nc(-c3cccc(C#C[C@@]4(O)CCCN(C)C4=O)c3)ccc2n1", "=", 710),
    ("Cc1nc(-c2cccc(C#C[C@]3(O)CCN(CC(F)(F)F)C3=O)c2)nc2c(N)nccc12", "=", 6.6),
    ("CN1CC[C@@](O)(C#Cc2cccc(-c3cc(-c4cccs4)c4ncnc(N)c4n3)c2)C1=O", "≤", 0.5),
    ("Cc1ccc(C#C[C@@]2(O)C(=O)N(C)[C@@H]3C[C@@H]32)cc1-c1nc2c(N)ncnc2s1", "=", 1),
    ("C=Cc1cc(-c2cccc(C#C[C@]3(O)CCN(C)C3=O)c2)nc2c(N)ncnc12", "=", 2.9),
    ("Cc1cc(C#C[C@]2(O)CCN(C)C2=O)cc(-c2ncc3c(C)cnc(N)c3n2)c1", "=", 2.3),
    ("[2H]c1nc(N)c2nc(-c3cccc(C#C[C@@]4(O)C(=O)N(C)[C@@H]5C[C@@H]54)c3)ccc2n1", "≤", 0.5),
    ("Cc1n[nH]c(C)c1-c1cnc(N)c2nc(-c3cccc(C#C[C@]4(O)CCN(C)C4=O)c3)ncc12", "≤", 0.5),
    ("Cc1nc(N)c2nc(-c3cc(C#C[C@]4(O)CCN(C)C4=O)ccc3OC(F)(F)F)ccc2n1", "=", 9.2),
    ("Cc1nc(N)c2nc(-c3cccc(C#C[C@](C)(O)c4cnc(C)s4)c3)ccc2n1", "=", 3790),
    ("Cc1nc(N)c2nc(-c3cccc(C#C[C@](C)(O)c4ccccn4)c3)ccc2n1", "=", 15),
    ("CN1CC[C@@](O)(C#Cc2cccc(-c3cc4c(N)nccc4cn3)c2)C1=O", "=", 0.7),
    ("Cc1nc(-c2cccc(C#C[C@@](C)(O)c3nccs3)c2)nc2c(N)nccc12", "≤", 0.5),
    ("CN1CC[C@@](O)(C#Cc2cccc(-c3cc(NCC(F)(F)F)c4ncnc(N)c4n3)c2)C1=O", "=", 0.6),
]
